MIC values for the compounds below.
# System: Staphylococcus aureus
# method: In vitro antibacterial activity against oxazolidinone Linezolid resistant Staphylococcus aureus (Sau3LZD) was determined
# Assay type: functional
Supply the numeric figure in µg/mL, leaving out any unit text.

Take a look at these entries with their results.
> print(dat)
                                   compound  recorded.measurement
1  CC(=O)NC[C@H]1CN(c2ccc(OC3CCCN(c4nc5c(cc4F)c(=O)c(C(=O)O)cn5C4CC4)CC3)c(F)c2)C(=O)O1 (stereo partly drawn)                   0.5
2  O=C(O)c1cn(C2CC2)c2cc(N3CCNCC3)c(F)cc2c1=O                   0.5

Q. Can you look up the measured MIC of `CC(=O)NC[C@H]1CN(c2ccc(O[C@@H]3CCN(c4nc5c(cc4F)c(=O)c(C(=O)O)cn5C4CC4)C3)c(F)c2)C(=O)O1` for me?
A. 0.5
